- Measurement Target: GLP (Homo sapiens)
- Construct: His6 (N); made in house; host or cells: E. coli BL21 (DE3)pLysS-rosetta
- Sequence (Q9H9B1 1-1298): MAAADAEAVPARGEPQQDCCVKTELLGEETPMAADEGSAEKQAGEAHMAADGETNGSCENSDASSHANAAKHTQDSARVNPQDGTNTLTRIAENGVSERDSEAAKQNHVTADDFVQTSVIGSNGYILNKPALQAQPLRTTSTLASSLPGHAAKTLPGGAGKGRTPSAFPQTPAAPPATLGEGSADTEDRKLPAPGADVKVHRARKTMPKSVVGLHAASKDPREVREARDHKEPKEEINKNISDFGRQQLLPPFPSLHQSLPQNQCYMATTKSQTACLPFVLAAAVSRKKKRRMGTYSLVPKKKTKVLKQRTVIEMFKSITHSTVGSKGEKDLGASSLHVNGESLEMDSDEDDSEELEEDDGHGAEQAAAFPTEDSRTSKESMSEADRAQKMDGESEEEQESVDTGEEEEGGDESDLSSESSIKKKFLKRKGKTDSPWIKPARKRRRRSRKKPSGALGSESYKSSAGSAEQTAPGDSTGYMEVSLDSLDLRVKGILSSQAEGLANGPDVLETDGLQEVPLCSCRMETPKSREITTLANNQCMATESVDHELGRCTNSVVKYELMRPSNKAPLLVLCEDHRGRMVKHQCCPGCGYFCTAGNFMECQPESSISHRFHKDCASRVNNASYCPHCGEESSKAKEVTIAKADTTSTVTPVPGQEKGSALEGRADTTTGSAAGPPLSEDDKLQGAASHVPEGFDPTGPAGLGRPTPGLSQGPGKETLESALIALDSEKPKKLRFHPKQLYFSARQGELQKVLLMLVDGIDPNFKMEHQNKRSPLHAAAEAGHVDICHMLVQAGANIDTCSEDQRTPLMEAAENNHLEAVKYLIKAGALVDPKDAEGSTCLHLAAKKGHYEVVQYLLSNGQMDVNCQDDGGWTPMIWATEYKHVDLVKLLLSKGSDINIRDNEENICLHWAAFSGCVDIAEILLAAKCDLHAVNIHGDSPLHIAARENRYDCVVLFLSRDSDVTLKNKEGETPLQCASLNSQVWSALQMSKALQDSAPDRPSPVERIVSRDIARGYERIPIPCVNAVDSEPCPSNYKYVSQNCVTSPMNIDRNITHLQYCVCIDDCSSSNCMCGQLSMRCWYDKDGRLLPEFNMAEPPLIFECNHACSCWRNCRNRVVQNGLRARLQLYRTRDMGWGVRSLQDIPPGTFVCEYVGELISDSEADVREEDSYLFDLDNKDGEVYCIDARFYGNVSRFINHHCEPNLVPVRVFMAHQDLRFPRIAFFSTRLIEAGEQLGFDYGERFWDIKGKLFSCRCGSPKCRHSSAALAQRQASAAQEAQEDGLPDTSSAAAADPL
- Test Name: MALDI-TOF MS methylation assay of H3K9 peptides with GLP
- Format: biochemical
- Recorded Conditions: peptide 100 µM, GLP 10 µM, SAM 1 mM, 5 h, 37 °C, MALDI-MS
Measured Quantity: GLP-catalyzed methylation, result in words, increased GLP/SAM

INSERT INTO results (substance, result) VALUES
  ('ARTKQTAR(Ap9)STGGKA [H3AP9]', 'lack of methylation'),
  ('ARTKQTAR(F4a9)STGGKA [H3F4a9]', 'lack of methylation'),
  ('ARTKQTAR(Y9)STGGKA (ARTKQTARYSTGGKA) [H3Y9]', 'lack of methylation');
